Hi! I'm sharing some MIC results obtained with Staphylococcus aureus ATCC 43300.
Please give a number only; it is taken to be in µM.

cpd_smiles=CC(C)C[C@H](NC(=O)[C@H](Cc1c[nH]c2ccccc12)NC(=O)[C@H](CC(C)C)NC(=O)[C@@H](NC(=O)[C@H](CC(C)C)NC(=O)[C@H](CCCCN)NC(=O)[C@@H](N)CCCCN)[C@@H](C)O)C(=O)N[C@H](C(=O)N[C@@H](CC(C)C)C(=O)N[C@@H](CCCCN)C(=O)N[C@@H](CCCCN)C(N)=O)[C@@H](C)O readout_number=32

Query :: If you can, please state the reported MIC value of CC[C@H](C)[C@H](NC(=O)[C@H](Cc1cnc[nH]1)NC(=O)[C@H](CCC(N)=O)NC(=O)[C@H](CC(C)C)NC(=O)[C@@H](N)Cc1ccccc1)C(=O)N[C@H](C(=O)NCC(=O)N[C@@H](C)C(=O)N[C@@H](CC(C)C)C(=O)NCC(=O)N[C@@H](CCCCN)C(=O)N[C@@H](CC(C)C)C(=O)N[C@@H](Cc1ccccc1)C(N)=O)[C@@H](C)CC .
Result :: 6.2

====

Test system: Pseudomonas aeruginosa ATCC 27853
assay remarks: ≥ marks a high value that may be exact or a test limit, other limits are often not marked, values filed in µg/mL are converted to µM
endpoint name: MIC (µM)
Please give a number only; it is taken to be in µM.

cpd_smiles=CC[C@H](C)[C@H](N)C(=O)N[C@@H](CC(N)=O)C(=O)N[C@@H](CC(C)C)C(=O)N[C@@H](CCCCN)C(=O)N[C@@H](C)C(=O)N[C@H](C(=O)N[C@H](C(=O)N[C@@H](C)C(=O)N[C@@H](CC(C)C)C(=O)N[C@@H](C)C(=O)N[C@@H](CCCCN)C(=O)N[C@@H](CCCCN)C(=O)N[C@@H](CC(C)C)C(=O)N[C@@H](CC(C)C)C(=O)O)[C@@H](C)O)[C@@H](C)CC endpoint_name=MIC unit_abbreviation=µM readout_number=53

Query :: If you can, please state the reported MIC value of CC[C@H](C)[C@H](NC(=O)[C@H](CC(C)C)NC(=O)CNC(=O)[C@H](CCCCN)NC(=O)[C@@H](NC(=O)[C@H](CC(C)C)NC(=O)[C@H](CCCCN)NC(=O)[C@@H]1CCCN1C(=O)[C@@H](NC(=O)[C@H](CC(C)C)NC(=O)[C@H](CO)NC(=O)[C@H](Cc1ccccc1)NC(=O)[C@@H](N)Cc1ccccc1)[C@@H](C)CC)C(C)C)C(=O)N[C@@H](CO)C(=O)N[C@@H](C)C(=O)N[C@@H](Cc1ccccc1)C(=O)N[C@@H](CCCCN)C(N)=O .
Result :: 9.38

====

System: Pseudomonas aeruginosa ATCC 27853
assay remarks: ≥ marks a high value that may be exact or a test limit, other limits are often not marked, values filed in µg/mL are converted to µM
Each item that follows carries a reported MIC.

Below, each entry is followed by its recorded MIC result.
cpd_smiles=CC(C)C[C@H](NC(=O)CNC(=O)[C@H](CS)NC(=O)CNC(=O)[C@H](CC(N)=O)NC(=O)CNC(=O)[C@H](Cc1c[nH]c2ccccc12)NC(=O)CNC(=O)[C@H](CCCN=C(N)N)NC(=O)[C@H](C)NC(=O)[C@@H](N)C(C)C)C(=O)N[C@@H](Cc1ccccc1)C(=O)NCC(=O)N[C@@H](CCCCN)C(=O)NCC(=O)NCC(=O)O result="> 100 µM"
cpd_smiles=CC(C)C[C@H](NC(=O)[C@H](C)NC(=O)CNC(=O)[C@H](CC(C)C)NC(=O)[C@@H](N)Cc1ccccc1)C(=O)N[C@@H](Cc1c[nH]c2ccccc12)C(=O)N[C@@H](CC(N)=O)C(=O)N[C@H](C(=O)N[C@@H](CC(C)C)C(=O)N[C@@H](CCCCN)C(=O)N[C@@H](CO)C(=O)N[C@H](C(=O)N[C@@H](Cc1ccccc1)C(N)=O)C(C)C)C(C)C result="> 50 µM"

Shift focus to the following entry.
Query :: If you can, please state the reported MIC value of CC[C@H](C)[C@H](NC(=O)[C@H](CCCN=C(N)N)NC(=O)[C@H](CCC(N)=O)NC(=O)[C@@H](NC(=O)[C@@H](NC(=O)[C@H](CCCN=C(N)N)NC(=O)[C@@H](N)CCCCN)[C@@H](C)CC)C(C)C)C(=O)N[C@@H](CCCCN)C(=O)N[C@@H](CC(=O)O)C(=O)N[C@@H](Cc1ccccc1)C(=O)N[C@@H](CC(C)C)C(=O)N[C@@H](C)C(=O)O .
Result :: 40 µM

====

Hi! I'm sharing some MIC results obtained with Acinetobacter baumannii.
Please give a number only; it is taken to be in µM.

Below, each entry is followed by its recorded MIC result.
cpd_smiles=CC[C@H](C)[C@H](NC(=O)[C@H](CCCN=C(N)N)NC(=O)[C@H](CCCCN)NC(=O)[C@H](C)NC(=O)[C@@H](NC(=O)[C@@H](N)CCCCN)[C@@H](C)CC)C(=O)N[C@@H](Cc1c[nH]c2ccccc12)C(=O)N[C@@H](CCCCN)C(=O)N[C@H](C(=O)N[C@@H](CC(C)C)C(=O)N[C@@H](CCCN=C(N)N)C(=O)N[C@@H](CCCN=C(N)N)C(=O)N[C@@H](CCCN=C(N)N)C(=O)N[C@@H](CC(C)C)C(N)=O)[C@@H](C)CC readout_number=2.11
cpd_smiles=NCC(=O)N[C@@H](CCCN=C(N)N)C(=O)N[C@@H](Cc1c[nH]c2ccccc12)C(=O)N[C@@H](CCCN=C(N)N)C(=O)N[C@@H](Cc1c[nH]c2ccccc12)C(=O)N[C@@H](Cc1c[nH]c2ccccc12)C(=O)N[C@@H](Cc1c[nH]c2ccccc12)C(=O)N[C@@H](CCCN=C(N)N)C(=O)N[C@@H](Cc1c[nH]c2ccccc12)C(=O)N[C@@H](CCCN=C(N)N)C(=O)N[C@@H](Cc1c[nH]c2ccccc12)C(N)=O readout_number=2

Query :: If you can, please state the reported MIC value of CC(C)[C@@H]1NC(=O)[C@H](CCCN=C(N)N)NC(=O)[C@H](C)NC(=O)[C@@H](NC(=O)[C@H](Cc2c[nH]c3ccccc23)NC(=O)[C@@H](N)CCCCN)CSSC[C@@H](C(=O)N[C@@H](CCCN=C(N)N)C(=O)O)NC(=O)[C@H](CCCN=C(N)N)NC(=O)[C@H](CCCN=C(N)N)NC(=O)[C@H](Cc2ccc(O)cc2)NC(=O)[C@@H]2CSSC[C@H](NC1=O)C(=O)N[C@@H](C)C(=O)N[C@@H](CCCN=C(N)N)C(=O)NCC(=O)N[C@@H](C)C(=O)N2 .
Result :: 7.77

====

System: Staphylococcus epidermidis ATCC 12228
assay remarks: ≥ marks a high value that may be exact or a test limit, other limits are often not marked, values filed in µg/mL are converted to µM
endpoint name: MIC (µM)
Please give a number only; it is taken to be in µM.

Below, each entry is followed by its recorded MIC result.
cpd_smiles=CC[C@H](C)[C@H](NC(=O)[C@H](CCCCN)NC(=O)[C@H](CCCCN)NC(=O)[C@H](CC(C)C)NC(=O)[C@H](CCCN=C(N)N)NC(=O)[C@H](CCCCN)NC(=O)[C@H](CCCN=C(N)N)NC(=O)[C@H](Cc1ccccc1)NC(=O)[C@H](CCCCN)NC(=O)[C@H](CCCCN)NC(=O)[C@H](CCCN=C(N)N)NC(=O)[C@H](CC(C)C)NC(=O)[C@H](CCCN=C(N)N)NC(=O)[C@H](CCCN=C(N)N)NC(=O)[C@H](Cc1ccccc1)NC(=O)[C@@H](N)CCCN=C(N)N)C(N)=O study_system="Staphylococcus epidermidis ATCC 12228" endpoint_name=MIC unit_abbreviation=µM readout_number=32
cpd_smiles=CC[C@H](C)[C@H](NC(=O)[C@H](CCCN=C(N)N)NC(=O)[C@H](CCCCN)NC(=O)[C@H](C)NC(=O)[C@@H](NC(=O)[C@@H](N)CCCCN)[C@@H](C)CC)C(=O)N[C@@H](Cc1c[nH]c2ccccc12)C(=O)N[C@@H](CCCCN)C(=O)N[C@H](C(=O)N[C@@H](CC(C)C)C(=O)N[C@@H](CCCN=C(N)N)C(=O)N[C@@H](CCCN=C(N)N)C(=O)N[C@@H](CCCN=C(N)N)C(N)=O)[C@@H](C)CC study_system="Staphylococcus epidermidis ATCC 12228" endpoint_name=MIC unit_abbreviation=µM readout_number=2.25
cpd_smiles=CC(C)C[C@H](NC(=O)[C@H](CCCN=C(N)N)NC(=O)[C@H](Cc1c[nH]c2ccccc12)NC(=O)[C@H](CCCN=C(N)N)NC(=O)[C@@H](NC(=O)[C@H](CCCCN)NC(=O)[C@H](Cc1c[nH]c2ccccc12)NC(=O)[C@H](CCCN=C(N)N)NC(=O)[C@H](CC(C)C)NC(=O)[C@H](Cc1c[nH]c2ccccc12)NC(=O)[C@@H](N)CCCN=C(N)N)[C@@H](C)O)C(=O)N[C@@H](CCCCN)C(N)=O study_system="Staphylococcus epidermidis ATCC 12228" endpoint_name=MIC unit_abbreviation=µM readout_number=16
cpd_smiles=CC(C)C[C@H](NC(=O)[C@H](Cc1c[nH]c2ccccc12)NC(=O)[C@H](CC(C)C)NC(=O)[C@@H](NC(=O)[C@H](CC(C)C)NC(=O)[C@H](CCCCN)NC(=O)[C@@H](N)CCCCN)[C@@H](C)O)C(=O)N[C@H](C(=O)N[C@@H](CC(C)C)C(=O)N[C@@H](CCCCN)C(=O)N[C@@H](CCCCN)C(N)=O)[C@@H](C)O study_system="Staphylococcus epidermidis ATCC 12228" endpoint_name=MIC unit_abbreviation=µM readout_number=32

Query :: If you can, please state the reported MIC value of CC[C@H](C)[C@H](NC(=O)[C@H](CC(C)C)NC(=O)CNC(=O)[C@H](CCCCN)NC(=O)[C@@H](NC(=O)[C@H](CC(C)C)NC(=O)[C@H](CCCCN)NC(=O)[C@@H]1CCCN1C(=O)[C@@H](NC(=O)[C@H](CC(C)C)NC(=O)[C@H](CO)NC(=O)[C@H](Cc1ccccc1)NC(=O)[C@@H](N)Cc1ccccc1)[C@@H](C)CC)C(C)C)C(=O)N[C@@H](CO)C(=O)N[C@@H](C)C(=O)N[C@@H](Cc1ccccc1)C(=O)N[C@@H](CCCCN)C(N)=O .
Result :: 1.17
